For each record, write down the corresponding EC50.
Molecular target: TRβ LBD (Homo sapiens)
Construct: (or 5 μl TRβ LBD, 4×, 2 nM)
Assay: In vitro thyroid hormone receptor binding assay (TR-FRET coactivator assay), TRβ LBD
Details: TR-FRET, TRβ LBD, Biotin-SRC2-2, 1 hour at room temperature

See these solved cases before continuing.
TRβ LBD (Homo sapiens) EC50 of `CC(C)n1c(=O)[nH]cc(Oc2c(Cl)cc(-n3nc(C#N)c(=O)[nH]c3=O)cc2Cl)c1=O` is > 10 µM

TRβ LBD (Homo sapiens) EC50 of `N#Cc1nn(-c2cc(Cl)c(Oc3cnc4[nH]ccc4c3)c(Cl)c2)c(=O)[nH]c1=O` is > 10 µM

TRβ LBD (Homo sapiens) EC50 of `CC(C)c1cn(Cc2c(Cl)cc(-n3nc(C#N)c(=O)[nH]c3=O)cc2Cl)cnc1=O` is > 10 µM

Proceed to the following item.
TRβ LBD (Homo sapiens) EC50 of `Cn1c(=O)[nH]c2ccc(Oc3c(Cl)cc(-n4nc(C#N)c(=O)[nH]c4=O)cc3Cl)cc21` is 0.046 µM

---

For each record, write down the corresponding EC50.
Molecular target: TRβ LBD (Homo sapiens)
Construct: (or 5 μl TRβ LBD, 4×, 2 nM)
Sequence (P10828 217-461 limits assumed): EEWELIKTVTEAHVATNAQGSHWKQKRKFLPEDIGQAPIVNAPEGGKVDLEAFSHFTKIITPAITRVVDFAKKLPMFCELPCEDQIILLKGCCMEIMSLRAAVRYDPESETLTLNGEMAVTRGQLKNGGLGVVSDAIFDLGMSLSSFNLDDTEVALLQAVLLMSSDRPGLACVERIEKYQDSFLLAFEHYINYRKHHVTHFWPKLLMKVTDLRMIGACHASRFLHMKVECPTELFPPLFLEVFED
Experiment: In vitro thyroid hormone receptor binding assay (TR-FRET coactivator assay), TRβ LBD
Conditions: TR-FRET, TRβ LBD, Biotin-SRC2-2, 1 hour at room temperature

See these solved cases before continuing.
The molecule identified as `CC(C)c1cc(Oc2c(F)cc(-n3nc(C#N)c(=O)[nH]c3=O)cc2F)c[nH]c1=O` registered its EC50 at > 10 µM

The molecule identified as `CC(C)c1cc(Oc2ccc(-n3nc(C#N)c(=O)[nH]c3=O)cc2Cl)cnc1O` registered its EC50 at > 10 µM

Proceed to the following item.
The molecule identified as `CC(C)n1cc(Oc2c(Cl)cc(-n3nc(C#N)c(=O)[nH]c3=O)cc2Cl)cnc1=O` registered its EC50 at > 10 µM

---

For each record, write down the corresponding EC50.
Molecular target: UniProt P10827
Sequence (P10827 163-410 isoform P10827-2 limits assumed, other chains not shown): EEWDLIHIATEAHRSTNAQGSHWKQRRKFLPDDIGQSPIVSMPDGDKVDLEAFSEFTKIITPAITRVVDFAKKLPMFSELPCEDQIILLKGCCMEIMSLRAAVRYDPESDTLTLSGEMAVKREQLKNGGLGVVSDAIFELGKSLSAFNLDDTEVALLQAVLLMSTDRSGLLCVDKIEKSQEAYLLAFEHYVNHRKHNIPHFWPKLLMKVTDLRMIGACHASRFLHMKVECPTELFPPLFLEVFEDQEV
Assay: In vitro thyroid hormone receptor binding assay (TR-FRET coactivator assay), TRα LBD
Conditions: Biotin-SRC2-2, 1 hour at room temperature

See these solved cases before continuing.
UniProt P10827 EC50 of `CC(C)c1cn(Cc2c(Cl)cc(-n3nc(C#N)c(=O)[nH]c3=O)cc2Cl)c(=O)[nH]c1=O` is > 100 µM

UniProt P10827 EC50 of `CC(C)c1cc(Oc2c(F)cc(-n3nc(C#N)c(=O)[nH]c3=O)cc2F)c[nH]c1=O` is > 10 µM

UniProt P10827 EC50 of `Cc1cc(-n2nc(C#N)c(=O)[nH]c2=O)cc(C)c1Oc1cnc(O)c(C(C)C)c1` is > 10 µM

UniProt P10827 EC50 of `CC(C)n1c(=O)[nH]cc(Oc2c(Cl)cc(-n3nc(C#N)c(=O)[nH]c3=O)cc2Cl)c1=O` is > 100 µM

Proceed to the following item.
UniProt P10827 EC50 of `N#Cc1nn(-c2cc(Cl)c(Oc3cnc(O)c(C4CC4)c3)c(Cl)c2)c(=O)[nH]c1=O` is > 10 µM
